viability, T/C values for the molecules below.
# Test system: 362531-283-R-J2-PDC complex spheroid viability
# Assay remarks: Anticancer human tumor 362531-283-R-J2-PDC patient-derived colon adenocarcinoma cell line growth inhibition [RAS]
# Reported conditions: second compound 0.3 µM; first compound 0.01 µM; hits give low values
Response body: numeric value in %, unit text excluded.

The examples below pair each entry with its known result.
Molecule: O=C(c1ccc(F)c(F)c1Nc1ccc(I)cc1F)N1CC(O)([C@@H]2CCCCN2)C1 + CCn1c(-c2cccnc2C(C)OC)c2c3cc(ccc31)N1CCOC(CC(NC(=O)C(C(C)C)N(C)C(=O)C3(F)CCN(C(=O)C#CC(C)(C)N(C)C)CC3)C(=O)N3CCCC(N3)C(=O)OCC(C)(C)C2)C1
Unit spec: %
viability, T/C: 90.8
--
Molecule: C=CC(=O)N1CCN(c2nc(OCC3CCCN3C)nc3c(F)c(-c4nc(N)cc(C)c4C(F)(F)F)c(Cl)cc23)C(C)C1 (centres undefined) + CCn1c(-c2cccnc2C(C)OC)c2c3cc(ccc31)N1CCOC(CC(NC(=O)C(C(C)C)N(C)C(=O)C3(F)CCN(C(=O)C#CC(C)(C)N(C)C)CC3)C(=O)N3CCCC(N3)C(=O)OCC(C)(C)C2)C1
Unit spec: %
viability, T/C: 109
--
Molecule: O=C(c1ccc(F)c(F)c1Nc1ccc(I)cc1F)N1CC(O)([C@@H]2CCCCN2)C1 + CCn1c(-c2cc(N3CCN(C)CC3)cnc2C(C)OC)c2c3cc(ccc31)-c1csc(n1)CC(NC(=O)C1CC1C)C(=O)N1CCCC(N1)C(=O)OCC(C)(C)C2
Unit spec: %
viability, T/C: 28.4

Query molecule follows.
For C=CC(=O)N1CCN(c2nc(OCC3CCCN3C)nc3c(F)c(-c4nc(N)cc(C)c4C(F)(F)F)c(Cl)cc23)C(C)C1 (centres undefined) + CCn1c(-c2cc(N3CCN(C)CC3)cnc2C(C)OC)c2c3cc(ccc31)-c1csc(n1)CC(NC(=O)C1CC1C)C(=O)N1CCCC(N1)C(=O)OCC(C)(C)C2 , what is its reported viability, T/C?
57

====

viability, T/C values for the molecules below.
# System: 362531-283-R-J2-PDC complex spheroid viability
# Assay remarks: Anticancer human tumor 362531-283-R-J2-PDC cell line growth inhibition [RAS];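 also: spheroids exposed to the agents for 7 days before readout; luminescence viability as percent of DMSO vehicle control wells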
# Reported conditions: second compound 0.3 µM; first compound 0.01 µM; hits give low values
Response body: numeric value in %, unit text excluded.

Molecule: CC(C)n1nc(-c2ccc3oc(N)nc3c2)c2c(N)ncnc21 + CCn1c(-c2cccnc2C(C)OC)c2c3cc(ccc31)N1CCOC(CC(NC(=O)C(C(C)C)N(C)C(=O)C3(F)CCN(C(=O)C#CC(C)(C)N(C)C)CC3)C(=O)N3CCCC(N3)C(=O)OCC(C)(C)C2)C1
Test target: 362531-283-R-J2-PDC complex spheroid viability
viability, T/C [%]: 103

Molecule: Nc1ccn(C2OC(CO)C(O)C2(F)F)c(=O)n1 (stereo not drawn) + CCn1c(-c2cccnc2C(C)OC)c2c3cc(ccc31)N1CCOC(CC(NC(=O)C(C(C)C)N(C)C(=O)C3(F)CCN(C(=O)C#CC(C)(C)N(C)C)CC3)C(=O)N3CCCC(N3)C(=O)OCC(C)(C)C2)C1
Test target: 362531-283-R-J2-PDC complex spheroid viability
viability, T/C [%]: 90

Molecule: C=CC(=O)Nc1cc(Nc2nccc(-c3cn(C)c4ccccc34)n2)c(OC)cc1N(C)CCN(C)C + CCn1c(-c2cccnc2C(C)OC)c2c3cc(ccc31)N1CCOC(CC(NC(=O)C(C(C)C)N(C)C(=O)C3(F)CCN(C(=O)C#CC(C)(C)N(C)C)CC3)C(=O)N3CCCC(N3)C(=O)OCC(C)(C)C2)C1
Test target: 362531-283-R-J2-PDC complex spheroid viability
viability, T/C [%]: 90.1

Lab note: need viability, T/C with 362531-283-R-J2-PDC complex spheroid viability for entry CC(C)n1nc(-c2ccc3oc(N)nc3c2)c2c(N)ncnc21 + CCn1c(-c2cc(N3CCN(C)CC3)cnc2C(C)OC)c2c3cc(ccc31)-c1csc(n1)CC(NC(=O)C1CC1C)C(=O)N1CCCC(N1)C(=O)OCC(C)(C)C2 , please look it up.
21.1

Lab note: need viability, T/C with 362531-283-R-J2-PDC complex spheroid viability for entry CCN1CCN(Cc2ccc(Nc3ncc(F)c(-c4cc(F)c5nc(C)n(C(C)C)c5c4)n3)nc2)CC1 + CCn1c(-c2cccnc2C(C)OC)c2c3cc(ccc31)N1CCOC(CC(NC(=O)C(C(C)C)N(C)C(=O)C3(F)CCN(C(=O)C#CC(C)(C)N(C)C)CC3)C(=O)N3CCCC(N3)C(=O)OCC(C)(C)C2)C1 , please look it up.
82.5

Lab note: need viability, T/C with 362531-283-R-J2-PDC complex spheroid viability for entry Nc1ccn(C2OC(CO)C(O)C2(F)F)c(=O)n1 (stereo not drawn) + CCn1c(-c2cc(N3CCN(C)CC3)cnc2C(C)OC)c2c3cc(ccc31)-c1csc(n1)CC(NC(=O)C1CC1C)C(=O)N1CCCC(N1)C(=O)OCC(C)(C)C2 , please look it up.
46.2

Lab note: need viability, T/C with 362531-283-R-J2-PDC complex spheroid viability for entry CCN1CCN(Cc2ccc(Nc3ncc(F)c(-c4cc(F)c5nc(C)n(C(C)C)c5c4)n3)nc2)CC1 + CCn1c(-c2cc(N3CCN(C)CC3)cnc2C(C)OC)c2c3cc(ccc31)-c1csc(n1)CC(NC(=O)C1CC1C)C(=O)N1CCCC(N1)C(=O)OCC(C)(C)C2 , please look it up.
46.8

Lab note: need viability, T/C with 362531-283-R-J2-PDC complex spheroid viability for entry C=CC(=O)Nc1cc(Nc2nccc(-c3cn(C)c4ccccc34)n2)c(OC)cc1N(C)CCN(C)C + CCn1c(-c2cc(N3CCN(C)CC3)cnc2C(C)OC)c2c3cc(ccc31)-c1csc(n1)CC(NC(=O)C1CC1C)C(=O)N1CCCC(N1)C(=O)OCC(C)(C)C2 , please look it up.
38.4

These data points were gathered from PubChem BioAssay AID2060909.
